The entries below are paired with their reported melting point.

Use the examples below as a reference point.
[
  {
    "Compound": "Cc1c(-c2ccccc2)sc2ncnc(O)c12",
    "melting point": "247 to 249 °C"
  },
  {
    "Compound": "CC(=O)CN1C(=O)N2CCc3ccccc3C2(c2ccc(Cl)cc2)C1=O (stereo not given)",
    "melting point": "173 to 175 °C"
  },
  {
    "Compound": "O=Cc1ccc(Sc2ccccn2)o1",
    "melting point": "65 to 67 °C"
  },
  {
    "Compound": "O=C(O)c1ccc(N2CCOCC2)cc1",
    "melting point": "278 to 281 °C"
  }
]

Exercise: GET /values?readout=melting point&item= CCOC(=O)CNc1ccc(I)cc1
Key: 84 to 86 °C

Exercise: GET /values?readout=melting point&item= Cc1cc(C)n(N=Cc2ccc([N+](=O)[O-])cc2)c(=O)c1C#N
Key: 260 to 261 °C

Exercise: GET /values?readout=melting point&item= NC(CC(=O)O)C(F)(F)F (stereo not given)
Key: 185 to 190 °C

Exercise: GET /values?readout=melting point&item= CC(=O)Oc1ccc2c(c1)Oc1cc(OC(C)=O)ccc1C21OC(=O)c2ccccc21
Key: 200 to 205 °C

Exercise: GET /values?readout=melting point&item= O=[N+]([O-])c1cccc2cccc(/C=N\c3ccccc3)c12
Key: 114 to 115 °C

---

The entries below are paired with their reported melting point.

Use the examples below as a reference point.
[
  {
    "Molecule": "O=C(/C=C/C(=O)c1ccccc1)c1ccccc1",
    "melting point": "110 to 111 °C"
  },
  {
    "Molecule": "COP(=O)(OC)c1ccccc1P(=O)(OC)OC",
    "melting point": "81 °C"
  }
]

Exercise: GET /values?readout=melting point&item= NC(Cc1ccc(N(CCCl)CCCl)cc1)C(=O)O (stereo not drawn)
Key: 182 °C

---

Observable: melting point (°C)
Respond with the bare value in °C.

Use the examples below as a reference point.
[
  {
    "Compound": "O=C1CC2OCC=C3CN4CCC56c7ccccc7N1C5C2C3CC46 (stereo not given)",
    "melting point (°C)": 287
  },
  {
    "Compound": "CC1CCC(C)(C(=O)NNc2ccccc2)C1(C)C (stereo not given)",
    "melting point (°C)": 92
  },
  {
    "Compound": "BrC(=Cc1ccccc1)c1ccc(Br)c2c(Br)cccc12",
    "melting point (°C)": 171
  },
  {
    "Compound": "CON=C(C(=O)OC)c1ccccc1COc1ccccc1C",
    "melting point (°C)": 102
  },
  {
    "Compound": "CCCCCCCCCCCCc1ccc(N)cc1",
    "melting point (°C)": 40.5
  }
]

Exercise: GET /values?readout=melting point&item= O=C(O)c1c(O)cccc1F
Key: 160

Exercise: GET /values?readout=melting point&item= COc1cccnc1Cl
Key: 47

Exercise: GET /values?readout=melting point&item= CN(N=O)c1ccccc1
Key: 14.7

Exercise: GET /values?readout=melting point&item= Cc1cccc(N2CC(CO)OC2=O)c1 (stereo not given)
Key: 76

Exercise: GET /values?readout=melting point&item= CC(C)NC(=O)N1CC(=O)N(c2cc(Cl)cc(Cl)c2)C1=O
Key: 136

Exercise: GET /values?readout=melting point&item= CN(NC=O)c1ccccc1
Key: 47

Exercise: GET /values?readout=melting point&item= ON=Cc1cccc(Br)c1
Key: 72
